# Tested on: Rattus norvegicus
# Experimental Setup: acute; oral; mortality
Measure Name: LD50

> print(dat)
                                   compound            result
1  O=C(NCc1ncc(C(F)(F)F)cc1Cl)c1c(Cl)cccc1Cl [Fluopicolide]  > 5000 mg/kg-day
2  CS(=O)c1cc(C(F)(F)F)cnc1C(=O)O (centres undefined)  > 5000 mg/kg-day
3  O=C(O)c1ncc(C(F)(F)F)cc1Cl [3-Chloro-5-(trifluoromethyl)pyridine-2-carboxylic acid]    5000 mg/kg-day
4  O=C(O)c1ncc(C(F)(F)F)cc1S(=O)(=O)O [3-Sulfo-5-trifluoromethyl pyridine-2-carboxylic acid]  > 5000 mg/kg-day
